target: human α7 receptor (Homo sapiens, UniProt P36544); assay: α7 NNR flux assay (FDSS Ca assay, Calcium-4 dye, positive allosteric modulation of acetylcholine response); details: human α7 receptor stably expressed in rat GH4C1 cell line; acetylcholine 20 μM (~EC100); % modulation relative to reference PNU-120596 set to 100%
Sequence (P36544 23-502): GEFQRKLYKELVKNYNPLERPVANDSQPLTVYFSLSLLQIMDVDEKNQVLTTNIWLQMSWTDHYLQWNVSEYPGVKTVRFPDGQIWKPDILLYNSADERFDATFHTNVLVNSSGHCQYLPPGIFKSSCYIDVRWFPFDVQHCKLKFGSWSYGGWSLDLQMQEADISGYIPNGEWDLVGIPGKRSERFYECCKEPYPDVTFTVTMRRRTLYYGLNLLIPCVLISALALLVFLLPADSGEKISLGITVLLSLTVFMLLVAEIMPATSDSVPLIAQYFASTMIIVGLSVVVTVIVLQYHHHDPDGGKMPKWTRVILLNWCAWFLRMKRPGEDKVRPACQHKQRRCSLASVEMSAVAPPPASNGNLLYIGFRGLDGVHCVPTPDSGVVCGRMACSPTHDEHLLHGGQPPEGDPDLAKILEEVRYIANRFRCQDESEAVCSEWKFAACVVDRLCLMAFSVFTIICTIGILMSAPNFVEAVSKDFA
EC50 values, listed per item
I'd appreciate it if you wrote the number followed by its unit.

These solved cases illustrate the format of a correct answer.
[2H]C([2H])(C)Oc1ccc([C@H](CO)NC(=O)[C@H]2C[C@@H]2c2cccc(F)c2)cn1 0.53 µM
CCOc1cc([C@H](C)NC(=O)[C@H]2C[C@@H]2c2ccccc2)ccn1 1.2 µM
CCOc1ccc([C@H](CO)NC(=O)[C@H]2C[C@@H]2c2ccc(F)cc2)cn1 0.62 µM
[2H]C([2H])(C)Oc1ccc([C@H](CO)NC(=O)[C@H]2C[C@@H]2c2ccccc2)cn1 1.6 µM
CC(C)Oc1ccc([C@H](CO)NC(=O)[C@H]2C[C@@H]2c2ccccc2)cn1 0.39 µM

// next item, EC50 requested
Kindly note the recorded EC50 for COC[C@H](NC(=O)[C@H]1C[C@@H]1c1ccccc1)c1ccc(OC2CCOCC2)nc1 , which is 1.2 µM

Where do these numbers come from? They come from patent US9889122B2.
